relative β-galactosidase activity, inducer Ms reference
# Test system: tetA promoter (PtetA)-lacZ reporter in E. coli KM3
# Format: cell-based
# conditionNotes: Table 6, reverse repressor hits; metsulfuron, same plate assay format as Table 4

L1-21: library L1 reverse repressor hit (SEQ ID NO: 1206-1213) (protein, rSuR L1-21) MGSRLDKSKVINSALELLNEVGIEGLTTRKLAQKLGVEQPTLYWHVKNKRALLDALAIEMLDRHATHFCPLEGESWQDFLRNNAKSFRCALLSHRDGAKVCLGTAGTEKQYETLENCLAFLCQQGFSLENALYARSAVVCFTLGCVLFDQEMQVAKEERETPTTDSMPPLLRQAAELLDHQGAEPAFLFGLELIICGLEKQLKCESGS
0.89

Consider now this further molecule.
Please supply the value of reported relative β-galactosidase activity, inducer Ms for the item L1-25: library L1 reverse repressor hit (SEQ ID NO: 1206-1213) (protein, rSuR L1-25) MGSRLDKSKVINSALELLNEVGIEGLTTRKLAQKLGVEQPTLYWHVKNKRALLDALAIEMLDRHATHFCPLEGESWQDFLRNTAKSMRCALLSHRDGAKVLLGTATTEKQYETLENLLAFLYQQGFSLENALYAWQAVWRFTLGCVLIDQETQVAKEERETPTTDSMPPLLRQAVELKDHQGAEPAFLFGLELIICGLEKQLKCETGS
0.32
